Hey, just so you know, these numbers are from patent US5849890.

target: human chorionic gonadotropin (hCG) heterodimer (Homo sapiens, UniProt P01215;P0DN86 P01215:25-116,P0DN86:21-165); assay: filter; conditions: tags: Calbiochem or Vitro Diagnostics (14,000 IU/mg); chain copies: alpha/beta heterodimer (stated); label: 32P
Sequence (P01215 25-116, chain 1 of 2, other chains not shown): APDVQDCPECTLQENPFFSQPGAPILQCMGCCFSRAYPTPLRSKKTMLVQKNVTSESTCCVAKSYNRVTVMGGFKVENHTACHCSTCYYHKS
So basically, if binding signal comes in under 7 % bound at 100 nM it's MET, and if it's 7 % bound at 100 nM or more it's NOT MET.

Example entries and their recorded answers appear below.
2nd generation ligand (SEQ 118) (ssRNA, 2'-F all pyrimidines) RNA: GGGAGGACGAUGCGGGUUCGACAUAAUCUUGAACGAUCCUUGAUUACUUGGUCCCAGACGACUCGCCCGA
NOT MET
2nd generation ligand 42 (ssRNA, 2'-F all pyrimidines) RNA: GGGAGGACGAUGCGGGUUCGAAACUUCCUUGAACGAUCCUUGGAUGUUUUGCUCAGACGACUCGCCCGA
MET
2nd generation ligand 69 (ssRNA, 2'-F all pyrimidines) RNA: GGGAGGACGAUGCGGGUUUCACUUCAAGUUGAACGAUCCUUCUUGGCUUGAGCACAGACGACUCGCCCGA
NOT MET

IN: Quick check: does 2nd generation ligand 19 (ssRNA, 2'-F all pyrimidines) RNA: GGGAGGACGAUGCGGUUUGACGUAUAAUUGAACGAUCCUUUUCUAGCUUAGACCAGACGACUCGCCCGA have binding signal under 7 % bound at 100 nM?
OUT: NOT MET

IN: Quick check: does 2nd generation ligand 93 (ssRNA, 2'-F all pyrimidines) RNA: GGGAGGACGAUGCGGUUCUAGGUCGAAAUUGAACGAUCCUUUUUCGCUAUGGAUCAGACGACUCGCCCGA have binding signal under 7 % bound at 100 nM?
OUT: NOT MET

IN: Quick check: does 2nd generation ligand 73 (ssRNA, 2'-F all pyrimidines) RNA: GGGAGGACGAUGCGGGGUUUUCUAAGUGUUGAACGAUCCUUCACAUAGCGUGUCCCAGACGACUCGCCCGA have binding signal under 7 % bound at 100 nM?
OUT: MET

IN: Quick check: does 2nd generation ligand 52 (ssRNA, 2'-F all pyrimidines) RNA: GGGAGGACGAUGCGGGAUUUUCCGUUAAUUGAACGAUCCUUUUCACGGACUGCAGACGACUCGCCCGA have binding signal under 7 % bound at 100 nM?
OUT: MET

IN: Quick check: does 2nd generation ligand 89 (ssRNA, 2'-F all pyrimidines) RNA: GGGAGGACGAUGCGGUGCAUGAUUUAGUUGAACGAUCCUUCCAACUUCCAGCACAGACGACUCGCCCGA have binding signal under 7 % bound at 100 nM?
OUT: MET

IN: Quick check: does 2nd generation ligand 61 (ssRNA, 2'-F all pyrimidines) RNA: GGGAGGACGAUGCGGUUUAGUGUUUAGUUGAACGAUCCUUCUAACACCAGUCCCAGACGACUCGCCCGA have binding signal under 7 % bound at 100 nM?
OUT: NOT MET

IN: Quick check: does 2nd generation ligand 58 (ssRNA, 2'-F all pyrimidines) RNA: GGGAGGACGAUGCGGUCUUAAGUUUGAAUUGAACGAUCCUUUUCUUCCAGGCAACAGACGACUCGCCCGA have binding signal under 7 % bound at 100 nM?
OUT: MET
